Data provenance: patent EP4803151A2

# TARGET_OR_TEST_SYSTEM: T1, human DLL3 endogenously expressed on SCLC tumor cell lines SHP77 and NCI-H82 (human, UniProt Q9NYJ7 27-618)
# T1 construct: whole, on cells; also called human DLL3 expressed on tumor cells
# T1 sequence (looked up): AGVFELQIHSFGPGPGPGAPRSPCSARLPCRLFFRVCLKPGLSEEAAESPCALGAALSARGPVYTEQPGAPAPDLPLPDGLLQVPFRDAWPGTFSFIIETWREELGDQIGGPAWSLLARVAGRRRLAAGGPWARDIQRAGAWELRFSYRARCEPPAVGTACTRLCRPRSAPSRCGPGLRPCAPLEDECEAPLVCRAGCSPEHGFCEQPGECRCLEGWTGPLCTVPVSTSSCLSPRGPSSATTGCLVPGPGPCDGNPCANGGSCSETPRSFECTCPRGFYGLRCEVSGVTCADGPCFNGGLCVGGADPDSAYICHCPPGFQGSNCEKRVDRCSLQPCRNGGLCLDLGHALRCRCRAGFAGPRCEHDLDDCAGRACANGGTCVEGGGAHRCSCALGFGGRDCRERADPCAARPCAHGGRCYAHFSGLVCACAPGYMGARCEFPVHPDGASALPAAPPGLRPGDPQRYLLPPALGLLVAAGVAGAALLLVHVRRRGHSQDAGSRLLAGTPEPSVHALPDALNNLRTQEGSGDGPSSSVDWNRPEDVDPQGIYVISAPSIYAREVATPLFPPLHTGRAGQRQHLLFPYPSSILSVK
# ASSAY_PROTOCOL: flow cytometry on SHP77 and NCI-H82 cells
MEASURE: binding result

310P3C5-z8 humanized antibody (antibody, human IgG1, kappa, V domains shown, HU-VH1-4 with HU-VL1-2; human IgG1) VH: QVQLVQSGAEVKKPGASVKVSCKASGYTFTDFYMNWVRQAPGQGLEWIGDANPNNGGTTHNPRFKGQATLTVDKSTSTAYMELRSLRSDDTAVYYCARGGLPGDFDYWGQGTTVTVSS VL: DIQMTQSPSSVSASVGDRVTITCKASEDIYNRLAWYQQKPGKAPKLLISGVTSLETGVPSRFSGSGSGTDFTLTISSLQPEDFATYYCQQYWSFPWTFGGGTKVEIKR
binds
36B7F3-hIgG1 chimeric antibody (antibody, V domains shown) VH: QVQLQQSGPELVKPGASVKISCRASGYTFTDHHLNWVKQRPGQGLEWIGWIFPGSGSDYYNERFKDKATLTVDKSSSTAYMLLSSLTSEDSAVYFCERWDYWGQGTTLTVSS VL: QIVLTQSPTIMSASPGEKVTMTCSASSSISYMHWYQQKPGTSPKRWIYDTSTLASGVPARFSGGGSGTSYSLTISSMEAEDAATYYCHQRSSYPLTFGAGTKLELKR
binds
310P3C5-z15 humanized antibody (antibody, human IgG1, kappa, V domains shown, human IgG1) VH: QVQLVQSGAEVKKPGASVKVSCKASGYTFTDFYMNWVKQAPGQGLEWIGDANPNNGGTTHNPRFKGRATLTVDKSASTAYMELRSLRSEDTAVYYCARGGLPGDFDYWGQGTTVTVSS VL: DIQMTQSPSSLSASVGDRVTITCKASEDIYNRLAWYQQKPGKAPKLLISGVTSLETGVPSRFSGSGSGTDFTFTISSLQPEDIATYYCQQYWSFPWTFGGGTKVEIKR
binds
